B1: GAGE1 (parent)
chain: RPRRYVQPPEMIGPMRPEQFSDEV

- Variants of: B1
- assay text: protein stability index of a GFP-peptide fusion (GPS, HEK-293T) (PSI 1-6); higher = more stable;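 note: lentivirally expressed fusions sorted by FACS into six bins by GFP to DsRed ratio, PSI derived from sequencing read proportions per bin multiplied by bin number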
- test parameters: c terminus: a fixed tail appended
Task for the reader: assign each of the following variants its reported protein stability index.
Output spec: single numeric token, no unit.

query: Fill in: protein stability index of `Y5A` is ___
result: 4.38

query: Recorded protein stability index for `M15F` , please?
result: 3.89

query: If you can, please state the reported protein stability index value of `R1G` .
result: 3.85

query: I would be grateful if you could share the reported protein stability index for `G13V` .
result: 4.05

query: # lookup: protein stability index of `V6C`
result: 3.63

query: # lookup: protein stability index of `P9G`
result: 4.46

query: Returns the measured protein stability index for the input variant. Input: `M11C`
result: 3.56

query: Which value of protein stability index has been reported for `F20I` in the records?
result: 4.31

query: Consider the variant `Q7D` and give its measured protein stability index.
result: 3.8

query: // query protein stability index value for entry `Y5L`
result: 3.31

query: For the variant shown here, `P8Q` , give the reported protein stability index.
result: 3.37

query: I am curious: what protein stability index value has been reported for `P9T` ?
result: 4.28

query: Request the reported protein stability index associated with `P2H`
result: 3.61

query: Bench note: what protein stability index did `R16K` show?
result: 3.94

query: State the recorded protein stability index for this entry: `E18R`
result: 3.57

query: Recorded protein stability index of `Q19I` , please.
result: 3.78

query: Can you share its protein stability index? I mean this variant: `R3L`
result: 2.88

query: Please report the recorded protein stability index for `R1S` .
result: 3.73

query: Form field: reported protein stability index of `R16E`
result: 4.3

query: // returns reported protein stability index for input `G13E`
result: 3.95

query: For the variant `P14K` , what protein stability index is on record?
result: 3.71

query: Record request: protein stability index value, item `P17V`
result: 4.43

query: Requested field: protein stability index. Item: `F20R`
result: 4.64

query: Need protein stability index, item `V6R`
result: 3.6

query: Which protein stability index is listed for `I12W` ?
result: 3.84

query: Any idea what protein stability index was measured for `D22W` ?
result: 2.53

query: # query: protein stability index of entry `V6E`
result: 3.92

query: Param item = `D22M` ; retrieve measured protein stability index.
result: 3.06

query: # query: protein stability index of entry `R1L`
result: 3.96

query: I'd like to know its protein stability index. The variant in question is `D22H`
result: 3.29

query: So what's the measured protein stability index for this one? `Y5R`
result: 3.91

query: Field request: protein stability index | item: `E18N`
result: 3.66

query: Given the variant `R3H` , what is its reported protein stability index?
result: 3.83

query: Which protein stability index is listed for `P9N` ?
result: 3.97

query: protein stability index lookup needed for `P8V` , thanks.
result: 3.5

query: Give its protein stability index value. Item: `F20Q`
result: 4.84

query: I would be grateful if you could share the reported protein stability index for `P9E` .
result: 4.71

query: Given `R16F` , state its recorded protein stability index.
result: 3.8

query: Entry `M15P` has what protein stability index?
result: 4.31

query: Recorded protein stability index of `E23V` , please.
result: 3.77

query: Fill blank: measured protein stability index of the variant `E18D` is ____.
result: 3.48

query: If you can, please state the reported protein stability index value of `P17S` .
result: 4.39

query: Which protein stability index is listed for `F20W` ?
result: 3.94

query: Look up protein stability index: `V24F`
result: 2.74

query: Record request: protein stability index value, item `S21D`
result: 3.98

query: Look up protein stability index for this variant: `G13H`
result: 4.07
